# Test system: MDA-MB-231
# Experimental Protocol: Cytotoxicity against human MDA-MB-231 cells after 96 hrs under normoxic condition by MTT assay
# Assay type: functional, cell-based
# Test Parameters: Homo sapiens, MDA-MB-231, 96 h; read-out: IC50
For each record, write down the corresponding IC50.
One number for each entry, in µM.

Please review the entries below; each comes with its answer.
compound_structure=Cc1c(Cl)c(=O)oc2cc(OCCn3cc(CO[C@H]4O[C@@H]5O[C@@]6(C)CC[C@H]7[C@H](C)CC[C@@H]([C@H]4C)[C@@]57OO6)nn3)ccc12 observed_value=18.4
compound_structure=Cc1c(F)c(=O)oc2cc(-n3cc(CO[C@H]4O[C@@H]5O[C@@]6(C)CC[C@H]7[C@H](C)CC[C@@H]([C@H]4C)[C@@]57OO6)nn3)ccc12 observed_value=3.47

Prompt line: State the recorded IC50 for this entry: C[C@H]1[C@@H](OCCOc2ccc3c(C(F)(F)F)cc(=O)oc3c2)O[C@@H]2O[C@@]3(C)CC[C@H]4[C@H](C)CC[C@@H]1[C@@]24OO3
Response line: 15.2

====

# System: MDA-MB-231
# Experimental Protocol: Cytotoxicity against human MDA-MB-231 cells after 96 hrs under normoxic condition by MTT assay
# Type: functional, cell-based
# Test Parameters: Homo sapiens, MDA-MB-231, 96 h; read-out: IC50
For each record, write down the corresponding pIC50.
One number for each entry, as −log10 of the molar value.

For each of the molecules below, state pIC50.
1. Cc1c(Cl)c(=O)oc2cc(-n3cc(CO[C@H]4O[C@@H]5O[C@@]6(C)CC[C@H]7[C@H](C)CC[C@@H]([C@H]4C)[C@@]57OO6)nn3)ccc12
2. CCOC(=O)c1cc2ccc(O[C@H]3O[C@@H]4O[C@@]5(C)CC[C@H]6[C@H](C)CC[C@@H]([C@H]3C)[C@@]46OO5)cc2oc1=O
3. Cc1c(Cl)c(=O)oc2cc(OCCn3cc(CCO[C@H]4O[C@@H]5O[C@@]6(C)CC[C@H]7[C@H](C)CC[C@@H]([C@H]4C)[C@@]57OO6)nn3)ccc12
4. Cc1c(C)c2ccc(-n3cc(CO[C@H]4O[C@@H]5O[C@@]6(C)CC[C@H]7[C@H](C)CC[C@@H]([C@H]4C)[C@@]57OO6)nn3)cc2oc1=O
5. C[C@H]1[C@@H](O)O[C@@H]2O[C@@]3(C)CC[C@H]4[C@H](C)CC[C@@H]1[C@@]24OO3

Response line:
4.30
4.66
5.12
4.63
4.33

====

For each record, write down the corresponding IC50.
# Tested on: MDA-MB-231
# Experimental Protocol: Cytotoxicity against human MDA-MB-231 cells after 96 hrs under normoxic condition by MTT assay
# Format: functional, cell-based
# Test Parameters: Homo sapiens, MDA-MB-231, 96 h; read-out: IC50
Numbers only, in µM.

For each of the compounds below, state IC50.
1. Cc1cc(=O)oc2cc(OCCn3cc(CCO[C@H]4O[C@@H]5O[C@@]6(C)CC[C@H]7[C@H](C)CC[C@@H]([C@H]4C)[C@@]57OO6)nn3)ccc12
2. Cc1c(C)c2ccc(-n3cc(CCO[C@H]4O[C@@H]5O[C@@]6(C)CC[C@H]7[C@H](C)CC[C@@H]([C@H]4C)[C@@]57OO6)nn3)cc2oc1=O
3. Cc1c(F)c(=O)oc2cc(-n3cc(CCO[C@H]4O[C@@H]5O[C@@]6(C)CC[C@H]7[C@H](C)CC[C@@H]([C@H]4C)[C@@]57OO6)nn3)ccc12
4. C[C@H]1[C@@H](OCCc2cn(CCCOc3ccc4c(C(F)(F)F)cc(=O)oc4c3)nn2)O[C@@H]2O[C@@]3(C)CC[C@H]4[C@H](C)CC[C@@H]1[C@@]24OO3
5. Cc1cc(=O)oc2cc(OCCCn3cc(CCO[C@H]4O[C@@H]5O[C@@]6(C)CC[C@H]7[C@H](C)CC[C@@H]([C@H]4C)[C@@]57OO6)nn3)ccc12
6. Cc1cc(=O)oc2cc(OCCO[C@H]3O[C@@H]4O[C@@]5(C)CC[C@H]6[C@H](C)CC[C@@H]([C@H]3C)[C@@]46OO5)ccc12
7. Cc1c(Cl)c(=O)oc2cc(OCCCn3cc(CCO[C@H]4O[C@@H]5O[C@@]6(C)CC[C@H]7[C@H](C)CC[C@@H]([C@H]4C)[C@@]57OO6)nn3)ccc12

Response line:
1. 17
2. 3.75
3. 3.84
4. 32.5
5. 72.2
6. 4.29
7. 31

For each of the compounds below, state IC50.
1. Cc1c(Cl)c(=O)oc2cc(-n3cc(CCO[C@H]4O[C@@H]5O[C@@]6(C)CC[C@H]7[C@H](C)CC[C@@H]([C@H]4C)[C@@]57OO6)nn3)ccc12
2. Cc1c(Cl)c(=O)oc2cc(O[C@H]3O[C@@H]4O[C@@]5(C)CC[C@H]6[C@H](C)CC[C@@H]([C@H]3C)[C@@]46OO5)ccc12
3. C[C@H]1[C@@H](Oc2ccc3c(C(F)(F)F)cc(=O)oc3c2)O[C@@H]2O[C@@]3(C)CC[C@H]4[C@H](C)CC[C@@H]1[C@@]24OO3

Response line:
1: 5.19; 2: 50.5; 3: 56.8

Prompt line: State the recorded IC50 for this entry: C[C@H]1[C@@H](OCCc2cn(CCOc3ccc4c(C(F)(F)F)cc(=O)oc4c3)nn2)O[C@@H]2O[C@@]3(C)CC[C@H]4[C@H](C)CC[C@@H]1[C@@]24OO3
Response line: 17.9

====

# Test system: MDA-MB-231
# Experimental Protocol: Cytotoxicity against human MDA-MB-231 cells after 96 hrs under normoxic condition by MTT assay
# Type: functional, cell-based
# Test Parameters: Homo sapiens, MDA-MB-231, 96 h; read-out: IC50
For each record, write down the corresponding IC50.
Numbers only, in µM.

compound_structure=Cc1c(Cl)c(=O)oc2cc(OCCO[C@H]3O[C@@H]4O[C@@]5(C)CC[C@H]6[C@H](C)CC[C@@H]([C@H]3C)[C@@]46OO5)ccc12 property_name=IC50 observed_value=18

For each of the molecules below, state IC50.
1. Cc1c(C)c2ccc(OCCCO[C@H]3O[C@@H]4O[C@@]5(C)CC[C@H]6[C@H](C)CC[C@@H]([C@H]3C)[C@@]46OO5)cc2oc1=O
2. COC(=O)c1cc2ccc(OCCn3cc(CCO[C@H]4O[C@@H]5O[C@@]6(C)CC[C@H]7[C@H](C)CC[C@@H]([C@H]4C)[C@@]57OO6)nn3)cc2oc1=O
3. COc1cccc2c1C(=O)c1c(O)c3c(c(O)c1C2=O)C[C@@](O)(C(=O)CO)C[C@@H]3O[C@H]1C[C@H](N)[C@H](O)[C@H](C)O1
4. C[C@H]1[C@@H](OCCc2cn(-c3ccc4c(C(F)(F)F)cc(=O)oc4c3)nn2)O[C@@H]2O[C@@]3(C)CC[C@H]4[C@H](C)CC[C@@H]1[C@@]24OO3
5. Cc1cc(=O)oc2cc(-n3cc(CO[C@H]4O[C@@H]5O[C@@]6(C)CC[C@H]7[C@H](C)CC[C@@H]([C@H]4C)[C@@]57OO6)nn3)ccc12
6. Cc1c(Cl)c(=O)oc2cc(OCCCO[C@H]3O[C@@H]4O[C@@]5(C)CC[C@H]6[C@H](C)CC[C@@H]([C@H]3C)[C@@]46OO5)ccc12

Response line:
[17.1, 61, 1.07, 1.85, 21.5, 0.6]

For each of the molecules below, state IC50.
1. Cc1cc(=O)oc2cc(OCCCO[C@H]3O[C@@H]4O[C@@]5(C)CC[C@H]6[C@H](C)CC[C@@H]([C@H]3C)[C@@]46OO5)ccc12
2. C[C@H]1[C@@H](OCCCOc2ccc3c(C(F)(F)F)cc(=O)oc3c2)O[C@@H]2O[C@@]3(C)CC[C@H]4[C@H](C)CC[C@@H]1[C@@]24OO3
3. Cc1c(C)c2ccc(O[C@H]3O[C@@H]4O[C@@]5(C)CC[C@H]6[C@H](C)CC[C@@H]([C@H]3C)[C@@]46OO5)cc2oc1=O
4. Cc1c(C)c2ccc(OCCO[C@H]3O[C@@H]4O[C@@]5(C)CC[C@H]6[C@H](C)CC[C@@H]([C@H]3C)[C@@]46OO5)cc2oc1=O
5. Cc1cc(=O)oc2cc(-n3cc(CCO[C@H]4O[C@@H]5O[C@@]6(C)CC[C@H]7[C@H](C)CC[C@@H]([C@H]4C)[C@@]57OO6)nn3)ccc12
6. Cc1c(C)c2ccc(OCCn3cc(CCO[C@H]4O[C@@H]5O[C@@]6(C)CC[C@H]7[C@H](C)CC[C@@H]([C@H]4C)[C@@]57OO6)nn3)cc2oc1=O

Response line:
1: 30; 2: 13.6; 3: 78.8; 4: 57.2; 5: 3.78; 6: 56.7
